# ASSAYED_TARGET: furin, P09958;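 note: purified furin at 1:10 enzyme:substrate in 50 mM HEPES pH 7.5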
# Sequence (P09958 whole entry): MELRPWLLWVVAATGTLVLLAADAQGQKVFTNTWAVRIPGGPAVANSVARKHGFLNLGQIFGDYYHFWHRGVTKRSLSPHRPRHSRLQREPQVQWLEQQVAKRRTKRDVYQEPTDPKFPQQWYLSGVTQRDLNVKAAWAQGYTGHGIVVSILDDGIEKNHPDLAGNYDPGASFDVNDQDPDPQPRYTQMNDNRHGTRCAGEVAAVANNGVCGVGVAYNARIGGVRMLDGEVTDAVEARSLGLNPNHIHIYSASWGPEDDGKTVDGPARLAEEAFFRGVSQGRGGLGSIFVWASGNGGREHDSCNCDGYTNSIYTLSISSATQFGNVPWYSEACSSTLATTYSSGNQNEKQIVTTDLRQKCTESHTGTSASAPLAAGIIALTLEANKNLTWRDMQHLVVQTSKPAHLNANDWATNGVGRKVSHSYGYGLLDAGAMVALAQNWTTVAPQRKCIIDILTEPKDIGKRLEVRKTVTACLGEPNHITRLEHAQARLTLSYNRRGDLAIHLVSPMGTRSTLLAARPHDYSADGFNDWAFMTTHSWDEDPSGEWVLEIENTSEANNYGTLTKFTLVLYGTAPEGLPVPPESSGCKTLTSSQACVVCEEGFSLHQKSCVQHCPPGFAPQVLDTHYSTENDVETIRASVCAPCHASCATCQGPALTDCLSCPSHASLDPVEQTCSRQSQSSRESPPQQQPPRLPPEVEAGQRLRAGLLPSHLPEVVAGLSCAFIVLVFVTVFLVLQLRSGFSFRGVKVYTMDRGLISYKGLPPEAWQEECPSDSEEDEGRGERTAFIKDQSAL
# METHOD_NOTES: furin cleavage Z-score vs untreated control; higher = more cleavage, active = 3.5 or more, inactive = 1 or less, 8 variable residues between constant flanks
# PROTOCOL_CONDITIONS: 7.5 min
The list shows a part of the results. No count for the full screen is at hand.
Assign furin cleavage Z-score to each entry below.
Would you mind answering with just the numeric figure?

q: Respond only with furin cleavage Z-score recorded for CALFRRRRRGAGNASASA [FS-606]
a: 5.12

q: Respond only with furin cleavage Z-score recorded for CAPHRRRRRGAGNASASA [FS-555]
a: 5.9

q: Respond only with furin cleavage Z-score recorded for CARACRGVTTAGNASASA [FS-2880]
a: 0.00727

q: Respond only with furin cleavage Z-score recorded for CALRRVLRRDAGNASASA [FS-56]
a: 4.93

q: Respond only with furin cleavage Z-score recorded for CAFGRRLRRRAGNASASA [FS-1124]
a: 3.43

q: Respond only with furin cleavage Z-score recorded for CAPRRRQQREAGNASASA [FS-1551]
a: 6.3

q: Respond only with furin cleavage Z-score recorded for CASLEVVTSTAGNASASA [HC2277]
a: -0.584

q: Respond only with furin cleavage Z-score recorded for CAMSTNPKPQAGNASASA [HC161]
a: 0.554

q: Respond only with furin cleavage Z-score recorded for CARTRRISQTAGNASASA [FS-2468]
a: -0.0765

q: Respond only with furin cleavage Z-score recorded for CAVLSDFKTWAGNASASA [HC1154]
a: -0.128

q: Respond only with furin cleavage Z-score recorded for CAHLHQNIVDAGNASASA [HC506]
a: -0.675

q: Respond only with furin cleavage Z-score recorded for CARTRRSWVWAGNASASA [FS-2385]
a: 0.299

q: Respond only with furin cleavage Z-score recorded for CATPPRERRGAGNASASA [FS-1095]
a: -0.768

q: Respond only with furin cleavage Z-score recorded for CAKPMRQQRDAGNASASA [FS-343]
a: 5.15

q: Respond only with furin cleavage Z-score recorded for CAVLSRQKREAGNASASA [FS-206]
a: 11.7

q: Respond only with furin cleavage Z-score recorded for CARQGRVISVAGNASASA [FS-2168]
a: -2.08

q: Respond only with furin cleavage Z-score recorded for CAAPARERRGAGNASASA [FS-6]
a: 7.34

q: Respond only with furin cleavage Z-score recorded for CARTKRHRSTAGNASASA [FS-2829]
a: 2.1

q: Respond only with furin cleavage Z-score recorded for CAPAHRHRRRAGNASASA [FS-1040]
a: 8.92

q: Respond only with furin cleavage Z-score recorded for CAEVPCHRPWAGNASASA [HC2408]
a: -0.0166

q: Respond only with furin cleavage Z-score recorded for CACKPLLREEAGNASASA [HC1229]
a: -2.56

q: Respond only with furin cleavage Z-score recorded for CARIERVARVAGNASASA [FS-187]
a: 2.36

q: Respond only with furin cleavage Z-score recorded for CAKKSRLRRRAGNASASA [FS-1131]
a: 0.949

q: Respond only with furin cleavage Z-score recorded for CADTEVVTSTAGNASASA [HC2298]
a: -0.856

q: Respond only with furin cleavage Z-score recorded for CARTKRFSHTAGNASASA [FS-2827]
a: 1.99

q: Respond only with furin cleavage Z-score recorded for CARTKRSWVWAGNASASA [FS-2613]
a: 2.5

q: Respond only with furin cleavage Z-score recorded for CARTKKSSVQAGNASASA [FS-1841]
a: 0.0621

q: Respond only with furin cleavage Z-score recorded for CACDLDPQARAGNASASA [HC1492]
a: -0.128

q: Respond only with furin cleavage Z-score recorded for CAVVCNSMSYAGNASASA [HC98]
a: -1.2

q: Respond only with furin cleavage Z-score recorded for CARTKRGWMWAGNASASA [FS-2828]
a: -0.833

Reference for the values: the supplement of paper PMC3545927
